System: MCF7 breast
Protocol: NCI-60 one-dose screen, 48 h
Test context: 10 µM unless noted
About 83,000 compounds went through this panel and 20% of them were active in at least one assay; those are over-represented in the sample as a whole. Calls of active or inactive are those of the source. Rule for the calls: active = growth percent below 10; inactive = the rest.
Outcome codes: active, inactive

Compound	Classification
COc1cc2c(cc1O)CCN1C[C@@H](CC(C)C)[C@@H](O)C[C@@H]21	inactive
COC(=O)[C@]12CC[C@@H](C)[C@H](C)[C@@H]1C1=CC[C@@H]3[C@@]4(C)C(C=O)=C[C@@](C)(COC(=O)c5ccco5)[C@@H]4[C@H](O)C[C@@]3(C)[C@]1(C)CC2	active
O=C(NS(=O)(=O)c1ccccc1)n1cc(-c2ccncc2)c(-c2ccc(Cl)c(O)c2)n1	inactive
CC(C)(C)n1cc(-c2ccnc(NCCCNS(=O)(=O)c3cccc(F)c3)c2)c(-c2cccc(O)c2)n1	inactive
Fc1ccc(Nc2ncnc3ccc(-c4cnc5[nH]ccc5c4)cc23)cc1Cl	active
COc1cccc(-c2cc3c(O)cc(C#N)cc3[nH]2)c1	inactive
CC(=O)Oc1cccc(S(=O)(=O)n2cc(C(=O)C(=O)Nc3ccncc3)c3ccccc32)c1	inactive
O=C(O)Cc1cccc(=O)c(O)c1C(=O)O	inactive
CC12CCCC(CC(=O)c3[nH]c4ccccc4c31)C2 (stereo not given)	inactive
c1coc(CNc2ccnc(Nc3ccc(OCCN4CCCCC4)cc3)n2)c1	inactive

###

System: HCT-116 colon
Protocol: NCI-60 one-dose screen, 48 h (100 = growth as untreated, 0 = no growth, -100 = all killed)
Test context: 10 µM unless noted
Protocol: Growth inhibition of the HCT-116 human tumor cell line is measured as a screen for anti-cancer activity. Cells are grown in 96 well plates and exposed to the test compound for 48 hours. Compounds are tested at a single concentration, which is 10^-5 M for most compounds. The reported endpoint is percent growth (GI% or GIPRCNT), where numbers from 0 - 100% represent growth inhibition, and numbers from -100% - 0 represent cell death. For example, a value of 40 represents 60% growth inhibition. […]
Compounds without any hit were thinned out: in the full panel of roughly 83,000, 20% have a hit.
# growth binned as I = under 30%, II = from 30% up to 90%, III = 90% and over

Molecule	Classification
N=C(N)c1ccc(-c2ccc(-c3cncc4ccccc34)s2)cc1F	I
Cc1cc(C2=NNC(=O)Cc3cc4c(cc32)OCCO4)cc(C)c1N	I
O=C(NCc1cn(Cc2cccc(Oc3ccccc3)c2)nn1)c1cccnc1Nc1ccc(F)cc1	II
O=c1[nH]c(NCc2ccccc2)nc2nc(Nc3ccc(NC(=S)Nc4ccccc4)cc3)nc(-c3ccc(O)cc3O)c12	III
C=C[C@@H]1C[C@H](O)Cc2c(C)cc(C)cc2N1	III
COc1cc(C2C3=C(COC3=O)Nc3cc4c(cc32)CCC4)cc2c1OCO2 (stereo unspecified)	I
NC(N)=Nc1nc2ccccc2o1	III
O=C1NN(C(=O)c2ccc(Cl)cc2)C(c2ccccc2)=N/C1=C\c1cn(-c2ccccc2)nc1-c1ccccc1	II
COc1ccc(C2C=C(c3ccc(OC)c(OC)c3)N=C3SC=C(C)N32)c(Br)c1 (stereo unspecified)	III
COc1ccc2c(c1)NC1=C(C(=O)OC1)C2c1cc(OC)c2c(c1)OCO2 (stereo unspecified)	I
CCOC(=O)c1c(/N=C2\SC(=O)/C(=C\C(=O)OC)N2NC)sc2c1CCN(C(=O)OCC)C2	III
CC(C)CSc1nc(NN)c(C#N)c(-c2ccc(F)cc2)n1	II
COc1ccc(OC)c(/C=C2\Oc3cc(OCCCN4CCCC4)ccc3C2=O)c1	II
O=C1NN(C(=O)c2ccc(Cl)cc2)C(c2ccccc2)=N/C1=C\c1ccc(F)cc1	II
COC(=O)[C@]12CC[C@@H](C)[C@H](C)[C@@H]1C1=CC[C@@H]3[C@@]4(C)C(C=O)=C[C@@](C)(COC(=O)c5ccco5)[C@@H]4[C@H](O)C[C@@]3(C)[C@]1(C)CC2	I
Cc1cc(N/N=C/c2nc(-c3ccccc3)oc2C)c2cc(Br)ccc2n1	II
CC(C)c1ccc2occ(C=C3C(=O)NC(=O)NC3=O)c(=O)c2c1	II
COc1ccc(C(=O)c2cc(OC)c3c(c2)OCO3)cc1O	I
O=C(Nc1cccc(-n2cc(-c3ccncc3)c(-c3ccc(Cl)c(O)c3)n2)c1)Nc1cc(C(F)(F)F)cc(C(F)(F)F)c1	I
O=C1CCCCC1(c1ccccc1)c1ccccc1	III
COc1cc(/C(C#N)=C/c2ccc3c(c2OC)OCO3)cc2c1OCO2	I
CN(C)CCCC(C#N)c1ccccc1 (stereo unspecified)	III
Cc1ccc(S(=O)(=O)NC(=O)n2cc(-c3ccncc3)c(-c3ccc(Cl)c(O)c3)n2)cc1	III
COc1ccc(C2C=C(c3ccc(Cl)cc3)N=C3SC=C(C)N32)c(Br)c1 (stereo unspecified)	I
CCCOC(=O)n1cccc1	III
COc1ccc(/C=C/c2c(C(C)=O)c(C)nc3ccccc23)cc1	II
CCN(CC)CCOc1ccc(Cl)c(C)c1	III
c1ccc(Nc2nc(Nc3ccccc3)nc(Nc3ccccc3)n2)cc1	II
COc1ccc(CCNC2=CC(=O)CCC2)cc1OC	III
Cc1ccc(NS(=O)(=O)c2cc(C)ccc2C)cc1	I
Cc1ccc(C(=O)C2=Cc3cc4ccccc4n3Cc3cnnn32)cc1	III
Oc1ccc(Cl)cc1-c1cc(-c2ccc(F)cc2)n[nH]1	II
CN(C)CCN1C(=O)c2ccc3c4c(ccc(c24)C1=O)C(=O)N(CCN=C=S)C3=O	I
Cc1nc2ncccc2nc1Nc1ccc(S(=O)(=O)Nc2cncs2)cc1	III
COc1ccc(C2NN=C3c4ccccc4CCC32)cc1 (stereo unspecified)	II
CCOC(=O)CN1/C(=N/c2sc3c(c2C(=O)OCC)CCN(C(=O)OCC)C3)SC(=O)/C1=C\C(=O)OC	II
NC(N)=N/N=C/c1ccc(-c2ccc(-c3cc(Cl)cc(Cl)c3)s2)cc1	I

###

System: SR leukemia
Protocol: NCI-60 one-dose screen, 48 h
Test context: 10 µM unless noted
Method: Growth inhibition of the SR human tumor cell line is measured as a screen for anti-cancer activity. Cells are grown in 96 well plates and exposed to the test compound for 48 hours. Compounds are tested at a single concentration, which is 10^-5 M for most compounds. The reported endpoint is percent growth (GI% or GIPRCNT), where numbers from 0 - 100% represent growth inhibition, and numbers from -100% - 0 represent cell death. For example, a value of 40 represents 60% growth inhibition. […]
Compounds without any hit were thinned out: in the full panel of roughly 83,000, 20% have a hit. Activity calls are given as the source filed them. The calls were made as follows: active = growth percent below 10; inactive = the rest.
Possible outcomes: 1 (yes) for active, 0 (no) for inactive

Compound	Classification
C/C=C(\C)C(C(=O)NC1CCCCC1)N(C(=O)C1CCc2cc(F)ccc2O1)c1ccc(Cl)cc1 (stereo unspecified)	0 (no)
Clc1ccccc1-c1nc2ccccc2[nH]1	0 (no)
O=C(CSC1CCc2ccccc21)N/N=C/c1ccccc1O (stereo unspecified)	0 (no)
C=CCn1c2ccccc2c2c3c(c4c5ccccc5n(CC=C)c4c21)C(=O)N(O)C3=O	1 (yes)
O=C([O][Sn]([O]C(=O)c1ccccn1)([c]1ccccc1)[c]1ccccc1)c1ccccn1	0 (no)
CC(C)(C)OC(=O)NC(CSCc1ccccc1)C(=O)ON1C(=O)CCC1=O (stereo unspecified)	0 (no)
O=C(O)C1CCCN1 (stereo unspecified)	0 (no)
NC1=NN(O)C2=CC([N+](=O)[O-])C=CC2=N1 (stereo unspecified)	0 (no)
COc1ccc2c(c1)[nH]c(=O)c1c3cc(C)c(C)cc3cn21	0 (no)
CCCCCCCCC(C)OC(=O)c1nn(C(C)=O)c2ccccc12 (stereo unspecified)	0 (no)
COc1cc([N+](=O)[O-])c2ncccc2c1O	0 (no)

###

The entries below come with measured growth values attached.
System: MOLT-4 leukemia
Protocol: NCI-60 one-dose screen, 48 h (100 = growth as untreated, 0 = no growth, -100 = all killed)
Test context: 10 µM unless noted
This is part of a sample that, as a whole, favours compounds with a hit. Of some 83,000 tested, about 20% had one in any assay. Active and inactive are the calls of the source. How the source made its calls: active means growth percent below 10; inactive means the rest.
Readout type: growth

Compound	Recorded result
COc1ccc(S(=O)(=O)n2ccc(-c3ccc4c(c3)CCC(C)(C)O4)n2)cc1OC	63.8% (inactive)
COc1ccc(Nc2[nH]n3c(=O)cc(C)nc3c2C(N)=O)c(OC)c1	116% (inactive)
N=C(N)c1ccc(-c2cc(Cl)cc(Cl)c2)cn1	89.1% (inactive)
CC(=O)Oc1cccc(S(=O)(=O)n2cc(C(=O)C(=O)Nc3ccncc3)c3ccccc32)c1	90.9% (inactive)
Brc1ccc(-c2[nH]ncc2-c2c[nH]c3ccccc23)cc1	70.3% (inactive)
c1ccc(-c2cn(-c3ccccc3)c(-c3ccccc3)n2)cc1	-13.3% (active)
CCN(CC)c1ccc(CNc2ccnc3ccccc23)cc1	51.7% (inactive)
CCCCN(CCCC)C(=N)c1ccnc2ccccc12	42.6% (inactive)
Cc1nc2cncc(C#Cc3cncc(C(=O)Nc4ccc(CN5CCN(C)CC5)c(C(F)(F)F)c4)c3)c2nc1C	21.1% (inactive)
CC(C)CC1NC(C)(C)CO1 (stereo not given)	124% (inactive)
COc1ccc(Nc2nc(N)nc3c2CCN(Cc2ccc(OC)cc2OC)C3=O)cc1	80.7% (inactive)
CCOC(=O)C1=C(C)NC(C)=C(C(=O)OCC)C1(C)C	97% (inactive)
Clc1cc(Cl)c2nc(-c3ccc(-c4ccc(/C=N/NC5=NCCN5)cc4)s3)cn2c1	73% (inactive)
Cc1ccc(-c2cc3nc(-c4ccccc4)nc(C(Cl)Cl)n3n2)cc1	89.3% (inactive)
COc1ccc(-c2ccc(-c3ccc(-c4ccc(C(=N)N)cc4)s3)s2)cc1OC	14.6% (inactive)
Cc1nc2ncccc2nc1Nc1ccc(S(=O)(=O)Nc2cncs2)cc1	99.4% (inactive)
CCCCCCCCCCCCCCCCNC(=O)OC(C)C	7.03% (active)
Cc1ccc(Nc2nnc(-c3ccc(Cl)cc3)o2)c(C)c1	61.7% (inactive)
COc1cc(C2CC(c3ccc4c(c3)OCO4)=NN2C=O)cc(OC)c1OC (stereo not given)	45% (inactive)
COc1ccc(-c2cn(-c3cccc(C(=O)/C=C/c4cc(OC)c(OC)c(OC)c4)c3)c(=O)[nH]2)cc1OC	70.4% (inactive)
COP(=O)(OC)/C(=N\NS(=O)(=O)c1ccc(C)cc1)c1ccccc1	103% (inactive)
Cc1ccc(S(=O)(=O)NC(=O)n2cc(-c3ccncc3)c(-c3ccc(Cl)c(O)c3)n2)cc1	85.2% (inactive)
Cc1ccc2nc(-c3cc4c([nH]c5ccccc54)c(-c4ccc(F)c(F)c4)n3)[nH]c2c1	35.4% (inactive)
COc1ccc(OC)c(C2OC(c3ccc4ccccc4c3O)=NN2C(C)=O)c1 (stereo not given)	61.8% (inactive)
COc1ccc(C(=O)N2NC(=O)/C(=C/c3ccc(F)cc3)N=C2c2ccccc2)cc1	42.4% (inactive)
CN(C[C@H]1Cc2c(cccc2N2CCN(c3ncccn3)CC2)CN1)[C@H]1CCCc2cccnc21	27.9% (inactive)
COc1ccc(C(=O)NC(=O)Nc2cc3c(cc2F)/C(=C/c2[nH]c(C)c(CCC(=O)O)c2C)C(=O)N3)c(F)c1	33.9% (inactive)
COc1cccc(CC(C)=C(c2ccc(OCCN(C)C)cc2)c2ccc(OCCN(C)C)cc2)c1	-25.5% (active)
N[C@@H]1CCN(C(=O)c2cc3cc(Cl)c(F)c(F)c3[nH]2)C1	94.7% (inactive)
O=C(Nc1cccc(-n2cc(-c3ccncc3)c(-c3ccc(Cl)c(O)c3)n2)c1)Nc1ccc(Cl)c(C(F)(F)F)c1	-22.1% (active)
Nc1cccc(-c2nc3sccn3c2-c2ccnc(NCCNS(=O)(=O)c3ccc(C(F)(F)F)cc3)n2)c1	45.6% (inactive)
C=C1C(=O)O[C@H]2[C@H]1CC/C(Cn1cc(CNC(=O)Cc3cn(C(=O)c4ccc(Cl)cc4)c4ccc(OC)cc34)nn1)=C\CC[C@@]1(C)O[C@@H]21	-23.5% (active)
CC(C)(C)n1cc(-c2ccnc(NCCCNS(=O)(=O)c3ccc(Br)cc3)c2)c(-c2cccc(O)c2)n1	6.97% (active)
C=C1C(=O)O[C@H]2[C@H]1CC/C(Cn1cc(-c3cccc(Cl)c3)nn1)=C\CC[C@@]1(C)O[C@@H]21	-18.6% (active)
N/C(=N\C(N)=N\c1nc2ccccc2s1)c1cccc(Br)c1	77.6% (inactive)
OB(O)c1cccc(-c2nc3ccc4[nH]ncc4c3c3c2CCCC3)c1F	52% (inactive)
COC(=O)c1nc(-c2ccccc2)oc1S(=O)(=O)N1CCN(c2cccc(Cl)c2)CC1	39.3% (inactive)
Cc1nc2c3c(ncn2n1)Oc1c(c(=O)[nH]c2ccccc12)C3c1ccc(Cl)cc1 (stereo not given)	101% (inactive)
CC(C)OC(=O)N1CCOCC1	110% (inactive)
S=C1CC(=S)NC(=S)N1	95.3% (inactive)

All values here come from PubChem BioAssay (NCI).
